Each entry below carries its reported EC50.
- study.target: α4β1 integrin (Homo sapiens, UniProt P05556+P13612)
- Construct: monitoring the capture of α4β1 expressing cells; endogenous in cells; host or cells: Jurkat
- method.description: α4β1 Cell Capture Assay
- Format: cell-based
- settings: capture of α4β1 expressing Jurkat cells on VCAM-1 extracellular domain-coated plate; Table 2
- Procedure: The potency of inhibitors in preventing α4β1 integrin interaction with VCAM-1 was measured by monitoring the capture of α4β1 expressing cells to a recombinant VCAM-1 extracellular domain-coated plate. […] Jurkat cells were spun down and re-suspended in assay medium (DMEM+0.5% FBS+0.5 mM MnCl2) at a density of 0.5×10^6 cells/ml. […] The cells that were bound to the plate were counted and plotted against the compound concentration to determine the EC50 of the test compounds.
reported.endpoint: EC50 (nM)

>>> reported_value("Cc1cc(C[C@H](NC(=O)c2c(F)cc(N3CCOC[C@@H]3C(F)(F)F)cc2F)C(=O)O)ccc1-c1c(C)n(C)c(=O)n(C)c1=O")
12.8
>>> reported_value("CCOCc1cc(OC)c(-c2ccc(C[C@H](NC(=O)c3c(F)cc(N[C@H](c4ccccc4)C(F)(F)F)cc3F)C(=O)O)cc2)c(OC)c1")
70.7
>>> reported_value("Cc1cc(C[C@H](NC(=O)c2c(C)cc(N3CCOC[C@@H]3C(F)(F)F)cc2F)C(=O)O)ccc1-c1c(C)nc(C)n(C)c1=O")
7.7

###

- study.target: α4β7 integrin (Homo sapiens, UniProt P13612+P26010)
- Construct: monitoring the capture of α4β7 integrin expressing cells; endogenous in cells; host or cells: RPMI8866
- Sequence (P13612 34-1032): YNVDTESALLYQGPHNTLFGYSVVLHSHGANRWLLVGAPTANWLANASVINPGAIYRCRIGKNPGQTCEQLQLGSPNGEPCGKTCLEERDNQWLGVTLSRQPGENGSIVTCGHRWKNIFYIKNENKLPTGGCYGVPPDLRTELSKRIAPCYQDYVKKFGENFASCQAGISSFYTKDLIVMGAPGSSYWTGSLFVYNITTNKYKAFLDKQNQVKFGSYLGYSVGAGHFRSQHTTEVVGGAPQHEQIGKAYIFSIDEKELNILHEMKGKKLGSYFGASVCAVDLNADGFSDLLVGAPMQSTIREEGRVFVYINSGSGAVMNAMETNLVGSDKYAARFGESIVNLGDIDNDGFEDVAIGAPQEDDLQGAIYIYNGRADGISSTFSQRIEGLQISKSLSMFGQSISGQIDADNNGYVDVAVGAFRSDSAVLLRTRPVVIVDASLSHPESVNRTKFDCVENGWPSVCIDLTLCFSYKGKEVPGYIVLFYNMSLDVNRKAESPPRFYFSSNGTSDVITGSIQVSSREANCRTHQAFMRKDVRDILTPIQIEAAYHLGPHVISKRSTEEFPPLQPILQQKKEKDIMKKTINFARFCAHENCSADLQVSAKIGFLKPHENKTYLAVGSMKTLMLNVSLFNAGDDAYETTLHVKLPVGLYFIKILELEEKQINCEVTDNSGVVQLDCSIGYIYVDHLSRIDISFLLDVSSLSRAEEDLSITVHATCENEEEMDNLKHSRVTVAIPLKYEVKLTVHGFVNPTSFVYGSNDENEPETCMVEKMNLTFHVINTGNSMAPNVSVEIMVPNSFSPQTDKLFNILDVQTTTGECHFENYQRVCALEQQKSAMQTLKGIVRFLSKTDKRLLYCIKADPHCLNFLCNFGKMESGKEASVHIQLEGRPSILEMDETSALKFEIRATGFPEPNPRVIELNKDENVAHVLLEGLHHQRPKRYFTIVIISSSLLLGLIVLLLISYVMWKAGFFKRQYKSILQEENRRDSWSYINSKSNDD
- Sequence (P26010 20-798): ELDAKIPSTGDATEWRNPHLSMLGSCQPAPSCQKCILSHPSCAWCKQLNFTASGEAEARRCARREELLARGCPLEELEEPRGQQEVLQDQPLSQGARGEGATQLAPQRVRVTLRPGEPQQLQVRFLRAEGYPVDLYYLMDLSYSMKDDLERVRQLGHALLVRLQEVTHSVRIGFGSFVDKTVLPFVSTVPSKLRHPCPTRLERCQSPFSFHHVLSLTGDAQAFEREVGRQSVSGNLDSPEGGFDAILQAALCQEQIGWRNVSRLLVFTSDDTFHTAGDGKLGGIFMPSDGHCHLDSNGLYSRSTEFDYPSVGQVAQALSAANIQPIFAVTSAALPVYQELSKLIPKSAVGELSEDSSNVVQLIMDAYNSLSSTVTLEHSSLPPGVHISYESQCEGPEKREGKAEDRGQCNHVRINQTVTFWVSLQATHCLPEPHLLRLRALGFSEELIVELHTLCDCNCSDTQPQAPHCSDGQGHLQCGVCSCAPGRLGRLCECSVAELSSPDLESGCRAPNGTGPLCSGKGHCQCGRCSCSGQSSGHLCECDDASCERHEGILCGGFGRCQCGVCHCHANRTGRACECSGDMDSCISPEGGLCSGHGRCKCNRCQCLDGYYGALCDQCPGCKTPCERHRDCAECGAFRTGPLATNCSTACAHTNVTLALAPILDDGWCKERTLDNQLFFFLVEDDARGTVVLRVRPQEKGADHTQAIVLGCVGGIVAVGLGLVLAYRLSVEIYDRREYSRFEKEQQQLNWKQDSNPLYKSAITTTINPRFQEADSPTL
- method.description: α4β7 Integrin Cell Capture Assay
- Type: cell-based
- settings: capture of α4β7 integrin expressing RPM18866 cells on MadCAM-1 extracellular domain-coated plate; Table 2
pEC50: −log10 of the molar value.
Each entry below carries its reported pEC50.
reported.endpoint: pEC50

>>> reported_value("Cc1cc(N2CCOC[C@@H]2C(F)(F)F)cc(F)c1C(=O)N[C@@H](Cc1ccc(-n2c(=O)c3ccc(C#N)cc3n(C)c2=O)nc1)C(=O)O [Example 76]")
9.80
>>> reported_value("Cc1cc(N2CCOC[C@@H]2C(F)(F)F)cc(F)c1C(=O)N[C@@H](Cc1ccc(-n2c(=O)c3cc(C#N)ccc3n(C)c2=O)nc1)C(=O)O [Example 74]")
9.85
>>> reported_value("Cc1cc(N2CCOC[C@@H]2C(F)(F)F)cc(F)c1C(=O)N[C@@H](Cc1ccc(-n2c(=O)c3ccncc3n(C)c2=O)c(C(F)(F)F)c1)C(=O)O (atropisomer, axis not shown) [Example 90]")
9.15
>>> reported_value("Cc1cc(N2CCOC[C@@H]2C(F)(F)F)cc(F)c1C(=O)N[C@@H](Cc1cc(F)c(-n2c(=O)c3ccncc3n(C)c2=O)c(F)c1)C(=O)O [Example 80]")
10.22
>>> reported_value("Cc1cc(N2CCOC[C@@H]2CC(F)(F)F)cc(F)c1C(=O)N[C@@H](Cc1ccc(-n2c(=O)c3ccncc3n(C)c2=O)nc1)C(=O)O [Example 87]")
9.05
